experimental system: human claudin 18 isoform 2 (claudin 18.2) (human)
assay method text: cell-based or functional assay
readout kind: ADCC EC50, CHO-18.2 target cells (mouse FcγRIV reporter bioluminescence) (nM)
Give your result in nM as a bare value.

Hu-8 (antibody, V domains shown) VH: QVQLVESGGGVVQPGRSLRLSCAASGFTFSSYGMHWVRQAPGKGLEWVAVIWYDGSNKKYADSVKGRFTISRDNSKNTLYLQMNSLRAEDTAVYYCARRYDVLTAYPYYFYYNMDVWGPGTTVTVSS VL: QTVVTQEPSFSVSPGGTVTLTCGLNSGSVSTSYYPSWYQQTPGQAPRTLIYSTNTRSSGVPDRFSGSILGNKAALTITGAQADDESDYYCVLYMGSGIWVFGGGTKLTVL : 1.42

response.value for Hu-13 (antibody, V domains shown) VH: EVQLLESGGGLVQPGGSLRVACAASGFPLRSYAMSWVRQAPGKGLEWVSVTSGSGGSTYYADSVKGRFTISRDNSKSTVYLQMNSLRAEDTAVYYCAKDRGYDILTGYYDYFYGMDVWGQGTTVTVSS VL: DIQMTQSPSSLSASVGDRVTITCRASQGIRNDLGWFQQKPGKAPKRLIYAASSLQSGVPSRFSGSGSGTEFTLTISSLQPEDFATYYCLQHNSYPYTFGQGTKLEIK (field: ADCC EC50, CHO-18.2 target cells (mouse FcγRIV reporter bioluminescence)) = 1.17

Form: binder = Hu-14 (antibody, V domains shown) VH: EVQLLESGGGLVQPGGSLRLSCAASGITFSSYAMSWVRQVPGKGLEWVSVISGSGGSTYYADSVKGRFTISRDNSKNTLYLQMNSLRAEDTAVYYCAKDRGYDILTTYYDYFYGMDVWGQPEFQHTGG VL: DIQMTQSPSSLSASVGDRVIITCRASQGIRNDLGWYQQKPGKAPKRLIYAASSLQSGVPSRFSGSGSGTEFTLTISSLQPEDLASYYCLQHNSYPYTFGQGTKLEIK ; ADCC EC50, CHO-18.2 target cells (mouse FcγRIV reporter bioluminescence) = 1.51

Query Hu-5 (antibody, V domains shown) VH: QVQLVQSGAEVKKPGASVKVSCEASGYTFTSSYMHWVRQAPGQGLEWMGIINPSGGRTNYAQKFQGRVTMTRDTSTSTVYMELSSLRSEDTAVYYCARDHYDIFTTYYPRGMDVWGQGTTVTVSS VL: DIQMTQSPSSLSASVGDRVTITCRASQGIRNDLGWYQQKPGKAPKRLIYAASSLQSGVPSRFSGSGSGTEFTLTISSLQPEDFTTYYCLQHNSFPFTFGQGTELEIR yields ADCC EC50, CHO-18.2 target cells (mouse FcγRIV reporter bioluminescence) of 7.09
